molecular target: KRAS G12S (Homo sapiens, UniProt P01116, G12S); construct: made in house; host or cells: E. coli, e.g. BL21 (DE3); assay: HTRF assay, KRAS G12S interaction with SOS1; type: biochemical; settings: bins <500 nM / 500 nM to 1000 nM, read-out: Inhibition of KRAS G12S (IC50)
Sequence (P01116 1-188 isoform P01116-2 G12S): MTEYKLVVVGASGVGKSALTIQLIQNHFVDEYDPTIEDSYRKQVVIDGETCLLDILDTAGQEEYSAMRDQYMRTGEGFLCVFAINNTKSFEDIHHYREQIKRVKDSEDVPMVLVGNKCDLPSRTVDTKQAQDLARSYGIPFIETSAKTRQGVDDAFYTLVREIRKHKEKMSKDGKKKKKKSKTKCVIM
pIC50: −log10 of the molar value.

- MOLECULE: "C[C@@H]1[C@H](N(C)c2nc(OC[C@@]34CCCN3C[C@H](F)C4)nc3c(F)c(-c4ccc(F)c5sc(N)c(C#N)c45)c(Cl)cc23)CCN1C(=O)n1cnc(C2CC2)c1 [Compound 135]"
  pIC50: "> 6.30"
- MOLECULE: "Cc1nc(C#N)cn1C(=O)N1CC[C@@H](N(C)c2nc(OC[C@@]34CCCN3C[C@H](F)C4)nc3c(F)c(-c4ccc(F)c5sc(N)c(C#N)c45)c(Cl)cc23)[C@H]1C [Compound 158]"
  pIC50: "> 6.30"
- MOLECULE: "C[C@@H]1[C@H](N(C)c2nc(OC[C@@]34CCCN3C[C@H](F)C4)nc3c(F)c(-c4ccc(F)c5sc(N)c(C#N)c45)c(Cl)cc23)CCN1C(=O)n1ccc(F)n1 [Compound 101]"
  pIC50: "> 6.30"
- MOLECULE: "CCN(c1nc(OC[C@@]23CCCN2C[C@H](F)C3)nc2c(F)c(-c3ccc(F)c4sc(N)c(C#N)c34)c(C(F)(F)F)cc12)[C@@H]1CCN(C(=O)n2cc(C)nc2C)[C@@H]1C (atropisomer, axis not shown; (aS)) [Compound 114]"
  pIC50: "> 6.30"
- MOLECULE: "CCN(c1nc(OC[C@@]23CCCN2C[C@H](F)C3)nc2c(F)c(-c3ccc(F)c4sc(N)c(C#N)c34)c(Cl)cc12)[C@@H]1CCN(C(=O)n2ccnc2C#N)[C@@H]1C [Compound 188]"
  pIC50: "> 6.30"
